# TARGET_ENTITY: Ubiquitin carboxyl-terminal hydrolase 2 (Homo sapiens) (UniProt O75604)
# Sequence (O75604 whole entry, looked up): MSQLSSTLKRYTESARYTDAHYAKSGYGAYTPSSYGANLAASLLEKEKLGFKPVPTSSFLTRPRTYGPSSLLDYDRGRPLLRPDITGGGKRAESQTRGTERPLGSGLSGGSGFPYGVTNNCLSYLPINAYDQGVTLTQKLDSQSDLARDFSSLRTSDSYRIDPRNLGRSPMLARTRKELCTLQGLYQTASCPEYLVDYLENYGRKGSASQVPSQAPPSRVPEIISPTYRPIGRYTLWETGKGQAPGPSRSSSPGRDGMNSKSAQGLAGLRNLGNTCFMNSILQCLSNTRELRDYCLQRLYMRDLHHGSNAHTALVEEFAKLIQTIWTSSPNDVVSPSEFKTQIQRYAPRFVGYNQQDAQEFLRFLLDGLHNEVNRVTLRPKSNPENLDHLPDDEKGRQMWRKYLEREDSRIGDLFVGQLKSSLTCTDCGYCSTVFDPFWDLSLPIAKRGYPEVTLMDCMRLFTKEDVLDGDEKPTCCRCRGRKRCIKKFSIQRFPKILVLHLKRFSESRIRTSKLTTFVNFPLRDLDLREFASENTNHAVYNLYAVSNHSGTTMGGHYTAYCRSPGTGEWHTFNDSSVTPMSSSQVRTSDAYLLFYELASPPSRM
# EXPERIMENT_DESCRIPTION: Ub-rhodamine 110 based assay for inhibitors Ubiquitin-specific Protease USP2a; also: nearly all actives have a fitted effect of over 50% in size
# COND: USP2a Ub-rhodamine110 cleavage, fluorescence; series mostly up to 38.3 µM
Inconclusive results are not listed. Calls of active or inactive are those of the source. Calls follow the shape of the dose curve; as a rule, active = well fitted inhibition curve with a large enough effect; inconclusive = small, poorly fitted or top-dose-only effect, or effect the other way; inactive = flat fitted curve, though single readings scatter.
Outcome codes: true (1) = active, false (0) = inactive

{"COMPOUND": "Cc1ccc2oc(=O)c3cnn(CC(=O)NCCCOC(C)C)c3c2c1", "GROUP": "false (0)"}
{"COMPOUND": "CCCSCCCNC(=O)CC1Oc2ccccc2NC1=O (stereo not drawn)", "GROUP": "false (0)"}
{"COMPOUND": "CCOc1ccc(NC(=O)N(CCCN2CCOCC2)Cc2cccnc2)cc1", "GROUP": "false (0)"}
{"COMPOUND": "O=C(NCCN1C(=O)CSC1=O)C1CC(=O)N(c2ccccc2)C1 (stereo not drawn)", "GROUP": "false (0)"}
{"COMPOUND": "CCn1c(=O)c(C(=O)Nc2ccccc2S(N)(=O)=O)c(O)c2ccccc21", "GROUP": "true (1)"}
{"COMPOUND": "COc1ccc(-c2cc(C(F)(F)F)nc(S(C)(=O)=O)n2)cc1", "GROUP": "false (0)"}
{"COMPOUND": "Cc1ccc(NC(=O)c2onc(C)c2Cl)cc1", "GROUP": "false (0)"}
{"COMPOUND": "O=[N+]([O-])c1cc(-c2nnc(Nc3ccccc3)c3ccccc23)ccc1N1CCOCC1", "GROUP": "false (0)"}
{"COMPOUND": "NC1=NC2(CCC(c3ccccc3)CC2)n2c(nc3ccccc32)N1 (stereo not drawn)", "GROUP": "false (0)"}
{"COMPOUND": "C=CC[C@H](CC(=O)N[C@H](CO)Cc1ccccc1)C(=O)N[C@@H](COC(=O)[C@@H](CC=C)CC(=O)OC(C)(C)C)Cc1c[nH]c2ccccc12", "GROUP": "false (0)"}
{"COMPOUND": "CCOC(=O)Cn1c(=O)oc2cc(S(=O)(=O)Nc3cc(Cl)ccc3OC)ccc21", "GROUP": "false (0)"}
{"COMPOUND": "Cc1ccccc1OCCn1nc(C(=O)O)c2ccccc2c1=O", "GROUP": "false (0)"}
{"COMPOUND": "Cc1ccc(-c2ccc(CCC(=O)O)n2NC(=O)c2cccs2)cc1", "GROUP": "false (0)"}
{"COMPOUND": "CN(C)S(=O)(=O)c1ccc(C(=O)NCCN=C2NS(=O)(=O)c3ccccc32)cc1", "GROUP": "false (0)"}
{"COMPOUND": "CCn1nc(C(=O)N[C@@H](CCSC)c2nc3ccccc3[nH]2)c2ccccc2c1=O", "GROUP": "false (0)"}
{"COMPOUND": "C=CCn1c(N)c(C(=O)NCc2cccnc2)sc1=S", "GROUP": "false (0)"}
{"COMPOUND": "CCn1c(COc2ccc(C)cc2)nnc1SCC(=O)Nc1ccc2c(c1)OCCO2", "GROUP": "false (0)"}
{"COMPOUND": "COC(=O)c1nnn(-c2nonc2N)c1CSc1ccccn1", "GROUP": "false (0)"}
{"COMPOUND": "FC(F)Sc1ccc(NC(=S)NC2CCCCC2)cc1", "GROUP": "false (0)"}
{"COMPOUND": "CCCCCCCCCCOC(=O)Cn1c(COc2ccccc2C)[n+](C)c2ccccc21", "GROUP": "false (0)"}
{"COMPOUND": "COc1ccc(S(=O)(=O)N(C)CC(=O)Nc2cccc(C(C)=O)c2)cc1Cl", "GROUP": "false (0)"}
{"COMPOUND": "O=C(O)CC1(CC(=O)Nc2ccc3ccccc3c2)CCCCC1", "GROUP": "false (0)"}
{"COMPOUND": "CCCCCCCCCCCCCCCC[N+](C)(C)CCN(Cc1ccc(OC)cc1)c1ncccn1", "GROUP": "true (1)"}
{"COMPOUND": "Cn1c(C(=O)N2CCN(Cc3ccc4c(c3)OCO4)CC2)cc2sccc21", "GROUP": "false (0)"}
{"COMPOUND": "Cc1csc(NC(=O)CCn2c(=O)sc3ccccc32)n1", "GROUP": "false (0)"}
{"COMPOUND": "C#CCOCCOCCOCCNc1nc(N2CCN(C(=O)CCCCCCCCCCNC(=O)Cn3cc(CCCCCN)nn3)CC2)nc(N2CCN(C(=O)CCCCCCCCCCNC(=O)[C@H]([C@@H](C)CC)n3cc(CCCCCN)nn3)CC2)n1", "GROUP": "false (0)"}
{"COMPOUND": "Cc1[nH]c2ccccc2c1C(c1ccccn1)c1c(C)[nH]c2ccccc12", "GROUP": "false (0)"}
{"COMPOUND": "Cc1c(C(=O)Nc2ccc3c4c(cccc24)CC3)cccc1[N+](=O)[O-]", "GROUP": "false (0)"}
{"COMPOUND": "O=C(O)CN1C(=O)/C(=C\\c2ccccc2OCc2ccc(Cl)cc2Cl)SC1=S", "GROUP": "true (1)"}
{"COMPOUND": "CC(C)(C)C(=O)Nc1c2c(nc3c1CCC3)CCCC2", "GROUP": "false (0)"}
{"COMPOUND": "Cc1ccc(C)c(OCC(=O)Nc2cc(NC(=O)COc3cc(C)ccc3C)cc(C(=O)O)c2)c1", "GROUP": "true (1)"}
{"COMPOUND": "COc1cc(C)ccc1OCCOc1cc(C)ccc1Cl", "GROUP": "false (0)"}
{"COMPOUND": "O=C(CCS(=O)(=O)c1ccc(Br)s1)NC1CCCC1", "GROUP": "false (0)"}
{"COMPOUND": "Cc1cccc(NC(=O)NCc2ccc3c(c2)cc(C)n3C)c1", "GROUP": "false (0)"}
{"COMPOUND": "O=C(CSc1nccc(=O)[nH]1)N1N=C2/C(=C/c3ccco3)CCCC2C1c1ccco1 (stereo not drawn)", "GROUP": "true (1)"}
{"COMPOUND": "CC1(C)CC(=O)C=C(NCc2cccs2)C1", "GROUP": "false (0)"}
{"COMPOUND": "Cn1c(=O)c2c(nc(CN3CCN(C(=O)c4ccco4)CC3)n2CCCc2ccccc2)n(C)c1=O", "GROUP": "false (0)"}
{"COMPOUND": "CC(C)n1c(/C=C/[C@H](O)C[C@H](O)CC(=O)O)c(-c2ccc(F)cc2)c2ccccc21", "GROUP": "false (0)"}
{"COMPOUND": "Cn1c(C(=O)NCCN2CCOCC2)cc2c(=O)n(C)c3ccccc3c21", "GROUP": "false (0)"}
{"COMPOUND": "O=C(NCc1ccccc1)C1CCC1", "GROUP": "false (0)"}
{"COMPOUND": "CC(=O)c1c(N2CCCC2)[nH]c(-c2ccccc2)nc1=S", "GROUP": "false (0)"}
{"COMPOUND": "Cc1ccc(S(=O)(=O)N2[C@@H](c3ccc(C(C)(C)C)cc3)C(C(=O)O)=CC[C@H]2c2ccc(C(C)C)cc2)cc1", "GROUP": "true (1)"}
{"COMPOUND": "COc1cc(C)c(S(=O)(=O)NCc2ccc3c(c2)OCO3)cc1C", "GROUP": "false (0)"}
